// endpoint GI50 / system K562

compound	GI50
CCC1C(=O)N(C)c2cnc(Nc3cc(F)c(C(=O)NC4CCCC4)cc3OCCO)nc2N1C1CCCC1 (stereo not given)	265 nM
CC[C@@H]1C(=O)N(C)c2cnc(Nc3ccc(C(=O)NC4CCOCC4)cc3OCCO)nc2N1C1CCCC1	63.8 nM
CC[C@@H]1C(=O)N(C)c2cnc(Nc3ccc(C(=O)NC)cc3OCCO)nc2N1C1CCCC1	46.9 nM
CC[C@@H]1C(=O)N(C)c2cnc(Nc3ccc(C(=O)NCCN4CCN(C)CC4)cc3OCCO)nc2N1C1CCCC1	187 nM
CCCNC(=O)c1ccc(Nc2ncc3c(n2)N(C2CCCC2)[C@H](CC)C(=O)N3C)c(OCCO)c1	239 nM
